Where do the numbers come from? From patent US20110237659A1.

- SYSTEM: Human TRPV3 (Homo sapiens, UniProt Q8NET8)
- Construct: expressed in transfected cells; host or cells: CHO cells
- Sequence (Q8NET8 whole entry): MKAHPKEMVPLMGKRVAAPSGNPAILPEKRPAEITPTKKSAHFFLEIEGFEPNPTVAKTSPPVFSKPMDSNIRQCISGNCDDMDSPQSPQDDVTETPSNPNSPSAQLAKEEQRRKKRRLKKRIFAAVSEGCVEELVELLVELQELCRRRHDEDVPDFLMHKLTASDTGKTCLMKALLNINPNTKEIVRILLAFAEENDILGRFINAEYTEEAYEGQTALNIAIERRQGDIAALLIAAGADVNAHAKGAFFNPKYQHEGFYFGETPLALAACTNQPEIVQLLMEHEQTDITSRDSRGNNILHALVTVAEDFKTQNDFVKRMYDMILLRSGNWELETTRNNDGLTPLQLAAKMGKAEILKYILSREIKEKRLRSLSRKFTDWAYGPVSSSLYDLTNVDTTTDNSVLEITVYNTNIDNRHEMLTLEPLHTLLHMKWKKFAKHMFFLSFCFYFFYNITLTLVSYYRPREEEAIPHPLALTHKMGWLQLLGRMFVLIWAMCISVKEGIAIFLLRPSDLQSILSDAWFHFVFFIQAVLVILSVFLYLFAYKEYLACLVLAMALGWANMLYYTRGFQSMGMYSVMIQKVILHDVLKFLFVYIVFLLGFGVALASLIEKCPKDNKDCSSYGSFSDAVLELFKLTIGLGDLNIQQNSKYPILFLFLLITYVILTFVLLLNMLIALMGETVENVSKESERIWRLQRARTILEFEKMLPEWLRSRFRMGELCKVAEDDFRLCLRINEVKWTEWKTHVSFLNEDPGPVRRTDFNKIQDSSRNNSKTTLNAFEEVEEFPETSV
- ASSAY_DETAILS: 45Calcium uptake assay: inhibition of 2-APB induced cellular uptake of radioactive calcium in human TRPV3 expressing CHO cells
- Assay type: cell-based
- DETAILS: 1.0 μM test compound, 2-APB 500 μM, read-out: Percentage inhibition at 1.0 μM
READOUT_TYPE: inhibition at 1 µM (%)

molecule="COc1cccc(/C=C/c2oc3cc(F)ccc3c(=O)c2-c2ccc(C#N)cc2)c1OCCC(F)(F)F [Example 14]" readout_type="inhibition at 1 µM" measured_value=96
molecule="COc1cccc(/C=C/c2oc3ccccc3c(=O)c2-c2ccc(C#N)cc2)c1O [Example 6]" readout_type="inhibition at 1 µM" measured_value=32.1
molecule="COc1cccc(/C=C/c2oc3c(F)cc(F)cc3c(=O)c2-c2ccc(C#N)cc2)c1OCC1CC1 [Example 22]" readout_type="inhibition at 1 µM" measured_value=40

I. COc1cccc(/C=C/c2oc3ccccc3c(=O)c2-c2ccc(OC(F)(F)F)cc2)c1OCC1CC1 [Example 1]
II. COc1cccc(/C=C/c2oc3ccccc3c(=O)c2-c2ccc(C#N)cc2)c1OCCC(F)(F)F [Example 9]
Exercise: When I and II are compared, which has the higher number for inhibition at 1 µM? Write the label of whichever entry you select.
Key: II

A. COc1cccc(/C=C/c2oc3ccc(F)cc3c(=O)c2-c2ccc(C#N)cc2)c1OCCC(C)C [Example 18]
B. COc1cccc(/C=C/c2oc3ccccc3c(=O)c2-c2ccc(C#N)cc2)c1OCC(C)C [Example 8]
Exercise: // which entry reports the smaller inhibition at 1 µM, A or B ? Write the label of whichever entry you select.
Key: A
(A: 55.2%, B: 89.3%)
